- EXPERIMENTAL TARGET: UniProtKB P00742
- Sequence (P00742 235-488 limits assumed): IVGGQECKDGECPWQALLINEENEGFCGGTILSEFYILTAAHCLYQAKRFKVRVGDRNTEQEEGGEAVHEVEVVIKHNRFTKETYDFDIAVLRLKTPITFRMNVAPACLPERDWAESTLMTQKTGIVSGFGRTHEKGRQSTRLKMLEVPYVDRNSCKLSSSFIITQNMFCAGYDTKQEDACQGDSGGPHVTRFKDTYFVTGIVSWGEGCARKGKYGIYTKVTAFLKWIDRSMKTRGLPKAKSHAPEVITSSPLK
- Sequence (P00742 41-179 partner limits assumed): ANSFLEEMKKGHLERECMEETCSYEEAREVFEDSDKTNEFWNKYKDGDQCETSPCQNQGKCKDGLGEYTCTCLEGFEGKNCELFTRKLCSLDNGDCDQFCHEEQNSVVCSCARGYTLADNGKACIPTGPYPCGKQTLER
- TEST DESCRIPTION: Factor Xa inhibition (FXa-IC50)
- Format: biochemical
- CONDITION DESCRIPTION: read-out: FXa-IC50
Each record here notes measured IC50.
MEASURED PROPERTY: IC50 (nM)

COMPOUND	EXPERIMENTAL TARGET	MEASURED PROPERTY	OBSERVED RESULT
C#Cc1ccc(NC(=O)N2C[C@H](OCC(=O)OC)C[C@@H]2C(=O)Nc2ccc(N3CCOCC3=O)cc2)cc1 [Compound A4-10]	UniProtKB P00742	IC50	4.2
C#Cc1ccc(NC(=O)N2C[C@H](OCCOC)C[C@@H]2C(=O)Nc2ccc(N3CCOCC3=O)cc2)cc1 [Compound A4-9]	UniProtKB P00742	IC50	3.3
C#Cc1ccc(NC(=O)N2C[C@H](OCC(=O)O)C[C@@H]2C(=O)Nc2ccc(N3CCOCC3=O)cc2)cc1 [Compound A4-11]	UniProtKB P00742	IC50	4.8
C#Cc1ccc(NC(=O)N2CC(OC)CC2C(=O)Nc2ccc(N3CC(O)CC3C(=O)OC)cc2)cc1 (stereo not drawn) [Compound A4-8]	UniProtKB P00742	IC50	1100
C#CCO[C@@H]1C[C@H](C(=O)Nc2ccc(N3CCOCC3=O)cc2)N(C(=O)Nc2ccc(C#C)cc2)C1 [Compound A4-6]	UniProtKB P00742	IC50	1.3
C#Cc1ccc(NC(=O)N2C[C@H](OC)C[C@@H]2C(=O)Nc2ccc(-n3nc(C)ccc3=O)cc2)cc1 [Compound A4-12]	UniProtKB P00742	IC50	2100
C#Cc1ccc(NC(=O)N2CC(OCC)CC2C(=O)Nc2ccc(-n3ccccc3=O)c(F)c2)cc1 (stereo not drawn) [Compound A4-2]	UniProtKB P00742	IC50	1.9
C#Cc1ccc(NC(=O)N2CC(OCC)CC2C(=O)Nc2ccc(N3CCCCC3=O)cc2)cc1 (stereo not drawn) [Compound A4-1]	UniProtKB P00742	IC50	3
C#Cc1ccc(NC(=O)N2CC(O)CC2C(=O)Nc2ccc3c(c2)CCN3C(C)=O)cc1 (stereo not drawn) [Compound A4-3]	UniProtKB P00742	IC50	2600
C#Cc1ccc(NC(=O)N2CC(OCC(O)CO)CC2C(=O)Nc2ccc(N3CCOCC3=O)cc2)cc1 (stereo not drawn) [Compound A4-7]	UniProtKB P00742	IC50	3.1
C#Cc1ccc(NC(=O)N2CC(OC)CC2C(=O)Nc2ccc(-n3ccccc3=O)c(OC)c2)cc1 (stereo not drawn) [Compound A4-4]	UniProtKB P00742	IC50	2.8
C#Cc1ccc(NC(=O)N2CC(OCC=C)CC2C(=O)Nc2ccc(N3CCOCC3=O)cc2)cc1 (stereo not drawn) [Compound A4-5]	UniProtKB P00742	IC50	3.1

These entries and their values trace back to patent US7557222B2.
